METHOD_DESCRIPTION: Dissociation constant, apparent pKa of the compound
Type: physicochemical
MEASURE: pKa

> print(dat)
                   line.notation  observed.result
1  FC(F)(F)c1cnc(-c2cccnc2)[nH]1             10.2
2  Clc1ccc2[nH]c(-c3ccncc3)nc2c1               10
3  FC(F)(F)c1cnc(-c2ccncc2)[nH]1             9.73
